experiment: self-splicing fitness, log relative to wild type (ln ratio); higher = more splicing; Tetrahymena group I intron in knt gene, E. coli kanamycin selection, DiMSum; sequences stand for … in CUCUCU…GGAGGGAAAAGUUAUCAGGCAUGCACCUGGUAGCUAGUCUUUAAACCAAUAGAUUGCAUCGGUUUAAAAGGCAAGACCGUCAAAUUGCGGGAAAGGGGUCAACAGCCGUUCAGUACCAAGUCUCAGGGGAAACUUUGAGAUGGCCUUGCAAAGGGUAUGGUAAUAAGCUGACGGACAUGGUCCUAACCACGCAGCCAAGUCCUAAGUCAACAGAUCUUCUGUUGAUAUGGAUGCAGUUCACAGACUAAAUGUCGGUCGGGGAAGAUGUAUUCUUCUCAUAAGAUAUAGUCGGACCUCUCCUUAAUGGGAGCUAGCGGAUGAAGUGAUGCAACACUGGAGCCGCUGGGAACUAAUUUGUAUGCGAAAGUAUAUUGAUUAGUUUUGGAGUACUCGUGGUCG; conditions: 37 °C;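 further: selection with 25 µg/mL kanamycin versus none on LB agar overnight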
property_label: self-splicing fitness (ln)

Here are 2 sequences together with their reported answers.
ACAGAGCAAUAUUACGAUUU -1.71
CCGGAGCAAUAUUACGAGGC -2.86

Name the recorded self-splicing fitness (ln) of the item UAUUAGCAAUAUUACGGUGA in your answer.
-1.33

Give self-splicing fitness (ln) for the following sequence: CUAAAGCAAUAUUACGCCAU
-1.36

Let me know recorded self-splicing fitness (ln) for CCACAGCAAUAUUACGGAUA , thanks.
-2.68

Tell me self-splicing fitness (ln) reported for UGGUAGCAAUAUUACGUUAA
-1.78

Please list self-splicing fitness (ln) recorded for the sequence UAGCAGCAAUAUUACGUUAC
-1.36

Identify self-splicing fitness (ln) associated with the sequence CGGCAGCAAUAUUACGAACA
-0.204

Look up self-splicing fitness (ln) of GGAUAGCAAUAUUACGUUCG and report it.
-1.64

Return the recorded self-splicing fitness (ln) value; entry: GCCAAGCAAUAUUACGGAAA
-1.14

Give the reported self-splicing fitness (ln) for this sequence. CCUGAGCAAUAUUACGGACA
-1.64

Provide self-splicing fitness (ln) value for the following sequence: UCUGAGCAAUAUUACGGGGU
-2.28

* * *

test: self-splicing fitness, log relative to wild type (ln ratio); higher = more splicing; Tetrahymena group I intron in knt gene, E. coli kanamycin selection, DiMSum; sequences stand for … in CUCUCU…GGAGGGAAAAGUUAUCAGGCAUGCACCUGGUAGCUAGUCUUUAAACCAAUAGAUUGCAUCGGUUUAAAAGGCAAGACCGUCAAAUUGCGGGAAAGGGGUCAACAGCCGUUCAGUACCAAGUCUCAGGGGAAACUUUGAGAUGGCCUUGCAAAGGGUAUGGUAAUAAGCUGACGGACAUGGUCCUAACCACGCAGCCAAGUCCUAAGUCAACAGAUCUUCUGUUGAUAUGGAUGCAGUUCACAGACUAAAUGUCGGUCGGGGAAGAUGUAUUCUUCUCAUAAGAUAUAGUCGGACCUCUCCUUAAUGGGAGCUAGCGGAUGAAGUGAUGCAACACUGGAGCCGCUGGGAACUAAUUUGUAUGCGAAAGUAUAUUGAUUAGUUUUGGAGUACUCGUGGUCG; settings: 30 °C
property_label: self-splicing fitness (ln)

Known self-splicing fitness (ln) results, listed for orientation:
AUCAAGCAAUAUUACGUAUU -2.7
ACGUAGCAAUAUUACGGUCU -0.728
UCGAAGCAAUAUUACGGAAC -3.33

Using known records, supply self-splicing fitness (ln) for GUAUAGCAAUAUUACGGAGG
-2.94
